Value source: patent US11472877

Target Under Test: T1, mouse TREM2 on BWZ cells (mouse, UniProt Q99NH8 19-227)
T1 construct: whole, on cells; also called BWZ Mouse TREM2
T1 sequence (looked up): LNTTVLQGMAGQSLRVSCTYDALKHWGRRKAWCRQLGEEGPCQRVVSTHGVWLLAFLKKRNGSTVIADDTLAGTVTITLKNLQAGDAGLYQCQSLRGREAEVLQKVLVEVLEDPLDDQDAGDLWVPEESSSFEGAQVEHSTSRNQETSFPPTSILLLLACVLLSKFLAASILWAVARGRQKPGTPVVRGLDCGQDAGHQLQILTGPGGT
Method: FACS, BWZ cells

Binder	binding result
T1-19 (antibody, IgG1, V domains shown, huIgG1; also called TI-19; ADI-19086) VH: EVQLVESGGGLVQPGGSLRLSCAASGFTFSDHHMDWVRQAPGKGLEWVGRTRNKANSYTTEYAASVKGRFTISRDDSKNSLYLQMNSLKTEDTAVYYCARGPLGYKLWGQGTLVTVSS VL: DIQMTQSPSSVSASVGDRVTITCRASQGISSWLAWYQQKPGKAPKLLIYAASNLQSGVPSRFSGSGSGTDFTLTISSLQPEDFATYYCQQANSFPLTFGGGTKVEIK	no binding
T1-32 (antibody, IgG1, V domains shown, huIgG1; also called TI-32) VH: QLQLQESGPGLVKPSETLSLTCTVSGGSISSSSYYWGWIRQPPGKGLEWIGSIYYSGSTYYNPSLKSRVTISVDTSKNQFSLKLSSVTAADTAVYYCARDAPAVVGESPAFDIWGQGTMVTVSS VL: DIQMTQSPSSLSASVGDRVTITCRASQSISRYLNWYQQKPGKAPKLLIYAASSLQSGVPSRFSGSGSGTDFTLTISSLQPEDFATYYCQQSLDLPFTFGGGTKVEIK	no binding
T1-4 (antibody, IgG1, V domains shown, huIgG1; also called TI-4; ADI-19070) VH: QVQLVQSGAEVKKPGSSVKVSCKASGGTFSSYAISWVRQAPGQGLEWMGGIIPIFGTANYAQKFQGRVTITADESTSTAYMELSSLRSEDTAVYYCARHYYYGYAYFDLWGRGTLVTVSS VL: EIVMTQSPATLSVSPGERATLSCRASQSVSSNLAWYQQKPGQAPRLLIYGASTRATGIPARFSGSGSGTEFTLTISSLQSEDFAVYYCQQFNNHPITFGGGTKVEIK	no binding
